Tested on: Staphylococcus epidermidis
Experiment: Antibacterial activity against methicillin-resistant Staphylococcus epidermidis clinical isolate 16-5 assessed as inhibition of bacterial growth incubated for 18 hrs by two-fold dilution assay
Format: functional
Kindly supply the reported MIC values for the records listed here.

Provide MIC for all items below, preserving their order.
1. CC(C)=C[C@H]1c2cccc3[nH]cc(c23)C[C@@H]2C(=O)/C(=C(\C)O)C(=O)N21
2. CC(C)=C[C@@H]1c2cccc3[nH]cc(c23)C[C@H]2C(=O)/C(=C(\C)O)C(=O)N12
3. CC(C)=C[C@@H]1c2cccc3[nH]cc(c23)C[C@@H]2C(=O)/C(=C(\C)O)C(=O)N21
4. CC(C)=C[C@H]1c2cccc3[nH]cc(c23)C[C@H]2C(=O)/C(=C(\C)O)C(=O)N21

Output:
≥ 64 µg/mL
≥ 64 µg/mL
≥ 64 µg/mL
≥ 64 µg/mL
